Measured values drawn from patent US20250195521A1 for this set.

Parameter pIC50: see the listing below.
target: NRAS G12C (Homo sapiens (Human), UniProt P01111+P62937, G12C)
Sequence (P01111 whole entry G12C): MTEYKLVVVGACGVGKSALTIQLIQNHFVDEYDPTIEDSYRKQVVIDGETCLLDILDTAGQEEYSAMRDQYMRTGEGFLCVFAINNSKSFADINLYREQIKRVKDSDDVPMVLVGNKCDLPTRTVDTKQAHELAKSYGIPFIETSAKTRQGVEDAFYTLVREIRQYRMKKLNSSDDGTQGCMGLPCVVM
Sequence (P62937 whole entry): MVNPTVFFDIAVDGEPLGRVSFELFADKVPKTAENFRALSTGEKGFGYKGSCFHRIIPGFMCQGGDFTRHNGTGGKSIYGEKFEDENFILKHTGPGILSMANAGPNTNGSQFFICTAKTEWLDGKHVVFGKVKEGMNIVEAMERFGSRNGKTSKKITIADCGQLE
assay-notes: Ras-Raf disruption/FRET/MOA assay, NRAS G12C
Type: biochemical
assay-context: read-out: NRAS G12C FRET data IC50
pIC50: −log10 of the molar value.

compound: CCn1c(-c2cnccc2COC)c2c3cc(ccc31)-c1cccc(c1)C[C@H](NC(=O)[C@H](C(C)C)N1CC[C@@H](CN=C=NCCOC)C1)C(=O)N1CCC[C@H](N1)C(=O)OCC(C)(C)C2 [Example 80]
result-value: 6.00 to 7.00

compound: CCn1c(-c2cnccc2COC)c2c3cc(ccc31)-c1cc(O)cc(c1)C[C@H](NC(=O)[C@@H](CN(C)C(=O)[C@@H]1CN1)C(C)C)C(=O)N1CCC[C@H](N1)C(=O)OCC(C)(C)C2 [Example 60]
result-value: < 5.00

Q: # return recorded pIC50 for entry CCn1c(-c2cnccc2COC)c2c3cc(ccc31)-c1cccc(c1)C[C@H](NC(=O)[C@H](C(C)C)N(C)C(=O)CCN=C=Nc1ccc(N(C)C)cc1)C(=O)N1CCC[C@H](N1)C(=O)OCC(C)(C)C2 [Example 66]
Result: 6.00 to 7.00

Q: # return recorded pIC50 for entry CCn1c(-c2cnccc2COC)c2c3cc(ccc31)-c1cc(O)cc(c1)C[C@H](NC(=O)[C@@H](CCNC(=O)NCCCl)C(C)C)C(=O)N1CCC[C@H](N1)C(=O)OCC(C)(C)C2 [Example 26]
Result: 5.00 to 6.00

Q: # return recorded pIC50 for entry CCn1c(-c2cccnc2COC)c2c3cc(ccc31)-c1cc(O)cc(c1)C[C@H](NC(=O)[C@H](C(C)C)N(C)C(=O)CNC1=NCCO1)C(=O)N1CCC[C@H](N1)C(=O)OCC(C)(C)C2 [Example 28]
Result: 5.00 to 6.00

Q: # return recorded pIC50 for entry CCn1c(-c2cnccc2COC)c2c3cc(ccc31)-c1cccc(c1)C[C@H](NC(=O)[C@H](C(C)C)N(C)C(=O)CCN=C=Nc1ccc(N3CCOCC3)cc1)C(=O)N1CCC[C@H](N1)C(=O)OCC(C)(C)C2 [Example 67]
Result: 6.00 to 7.00

Q: # return recorded pIC50 for entry CCn1c(-c2cccnc2[C@H](C)OC)c2c3cc(ccc31)-c1cccc(c1)C[C@H](NC(=O)[C@H](C(C)C)N1CC[C@@H](CN=C=NCCOC)C1)C(=O)N1CCC[C@H](N1)C(=O)OCC(C)(C)C2 [Example 121]
Result: 6.00 to 7.00
